Measured values drawn from ChEMBL document CHEMBL1145498 for this set.

Please go through the items and note down their ΔTm.
target: Serine/threonine-protein kinase PAK 5 (Homo sapiens) (UniProt Q9P286)
Sequence (Q9P286 whole entry, looked up): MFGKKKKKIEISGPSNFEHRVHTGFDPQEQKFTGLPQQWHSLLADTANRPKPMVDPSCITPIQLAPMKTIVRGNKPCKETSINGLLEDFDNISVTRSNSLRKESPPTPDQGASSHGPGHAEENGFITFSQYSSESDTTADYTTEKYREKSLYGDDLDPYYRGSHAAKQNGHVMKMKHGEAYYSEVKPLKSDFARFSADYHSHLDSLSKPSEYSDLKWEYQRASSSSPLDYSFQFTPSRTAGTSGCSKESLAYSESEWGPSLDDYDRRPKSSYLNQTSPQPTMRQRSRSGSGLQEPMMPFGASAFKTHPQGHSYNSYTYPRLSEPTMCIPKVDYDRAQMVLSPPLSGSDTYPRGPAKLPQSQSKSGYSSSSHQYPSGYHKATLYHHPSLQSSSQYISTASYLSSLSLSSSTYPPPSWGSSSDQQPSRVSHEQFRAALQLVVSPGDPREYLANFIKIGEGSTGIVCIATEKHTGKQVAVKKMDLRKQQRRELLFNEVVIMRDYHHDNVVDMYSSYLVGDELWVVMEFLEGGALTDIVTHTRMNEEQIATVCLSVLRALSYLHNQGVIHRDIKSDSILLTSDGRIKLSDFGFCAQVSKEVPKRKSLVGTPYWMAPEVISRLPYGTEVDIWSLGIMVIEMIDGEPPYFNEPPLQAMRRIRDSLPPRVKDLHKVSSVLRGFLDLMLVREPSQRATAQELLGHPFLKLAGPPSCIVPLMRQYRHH

Problem: Which ΔTm value belongs to `Nc1n[nH]c2nnc(-c3c(-c4ccccc4)nn4ccccc34)cc12` ?
Result: -0.4 °C

Problem: Next: `Nc1ncnc2c1c(I)cn2[C@@H]1O[C@H](CO)[C@@H](O)[C@H]1O`
Result: 0.7 °C

Problem: Same read-out for `O=C1C=C2C(=Nc3c2c2c(c4c3=NC3=C4CCC=C3)C=NC=2)CC1` ?
Result: 2.7 °C

Problem: What do we get for `NCCNS(=O)(=O)c1cccc2c(Cl)cccc12` ?
Result: 0.1 °C

Problem: Quick one: `O=C(O)Cc1ccc(O)c([N+](=O)[O-])c1`
Result: 0.1 °C

Problem: Please answer likewise for `O=C(O)/C=C/c1cc(CO)ccc1CO`
Result: -4.4 °C

Problem: Input `NC(=O)c1ccc(-c2nc(-c3ccc4c(c3)OCCO4)c(-c3ccccn3)[nH]2)cc1`
Result: 0.4 °C

Problem: Query `Cn1cc(C2=C(c3cn(CCCN)c4ccccc34)C(=O)NC2=O)c2ccccc21` next
Result: 1.4 °C

Problem: // same read-out, input: `CCOC(=O)c1c(C)[nH]c(/C=C2\C(=O)Nc3ccccc32)c1C`
Result: -0.5 °C

Problem: Here is the next compound: `Nc1cc2ncnc(Nc3cccc(Br)c3)c2cc1N`
Result: 0.2 °C

Problem: Now try `Cc1cc(Nc2nc(-c3ccccc3)nc3ccccc23)n[nH]1` .
Result: 5.2 °C

Problem: Repeat for the following compound: `COc1cc2ncnc(Nc3cccc(O)c3)c2cc1OC`
Result: 0.5 °C

Problem: Same lookup for `CN1CCC(Nc2ncc3ncnc(Nc4ccc(F)c(Cl)c4)c3n2)CC1` , please.
Result: 2.5 °C

Problem: Then this compound: `CC(=O)O/N=C1/C(=C2/C(=O)Nc3cc(Br)ccc32)Nc2ccccc21`
Result: 0.9 °C

Problem: Would you kindly repeat that for `C[C@@H]1C[C@H]2O[C@@H]2/C=C\C=C\C(=O)Cc2c(Cl)c(O)cc(O)c2C(=O)O1` ?
Result: 0.6 °C

Problem: What do we get for `CCOC(=O)c1cnc2oc3ccc(O)cc3c2c1-c1ccccc1` ?
Result: 0.5 °C

Problem: Item: `C/C(O)=C(\C#N)C(=O)Nc1cc(Br)ccc1Br`
Result: 0.4 °C

Problem: Also, `N#C/C(=C\c1ccc(O)c(O)c1)C(=O)NCc1ccccc1` please.
Result: 0.3 °C

Problem: What do you get for `C#Cc1cccc(Nc2ncnc3cc(OCCOC)c(OCCOC)cc23)c1` ?
Result: 0.1 °C

Problem: Entry `Cc1cncc2cccc(S(=O)(=O)N3CCCNC[C@@H]3C)c12` please
Result: 0.5 °C

Problem: Now the same for `NC1=N/C(=C2/CCNC(=O)c3[nH]ccc32)C(=O)N1`
Result: 0.2 °C

Problem: `COC1=C2C[C@@H](C)C[C@H](OC)[C@H](O)[C@@H](C)/C=C(\C)[C@H](OC(N)=O)[C@@H](OC)/C=C\C=C(/C)C(=O)NC(=CC1=O)C2=O` , same question.
Result: 0 °C

Problem: Next compound up: CSc1nc(-c2ccc(F)cc2)c(-c2ccnc(NC(C)c3ccccc3)c2)[nH]1 (racemic)
Result: 0 °C

Problem: Proceed to `O=c1cc(N2CCOCC2)oc2c(-c3ccccc3)cccc12`
Result: 0.5 °C

Problem: # repeat for `O=c1cc(-c2ccc(O)cc2)oc2cc(O)cc(O)c12`
Result: 0.4 °C

Problem: Also `O=C1C(Cl)=C(N2C(=O)CCC2=O)C(=O)c2ccccc21` , if possible.
Result: -1.3 °C

Problem: Please do the same for `O=C1c2ccccc2-c2n[nH]c3cccc1c23` as well.
Result: 1.1 °C

Problem: Follow-up item: `O=C1Nc2ccc(I)cc2/C1=C1/Nc2ccccc2/C1=N\O`
Result: 1.3 °C

Problem: Then what about the compound `CCOc1ccc(/C=C2/SC(=O)N(CCN)C2=O)cc1` ?
Result: 0.1 °C

Problem: Now give it for `OC[C@H]1O[C@@H](n2cnc3cc(Cl)c(Cl)cc32)[C@H](O)[C@@H]1O` too.
Result: 0.2 °C

Problem: Note, next up: `O=S(=O)(c1cccc2c(Cl)cccc12)N1CCCNCC1`
Result: 0.1 °C

Problem: Try the compound `N#CC(C#N)=Cc1ccc(O)c(O)c1`
Result: 0.5 °C

Problem: Similarly, `CCOc1cc2ncnc(Nc3cccc(Br)c3)c2cc1OCC` ?
Result: 0.4 °C

Problem: // next record `Clc1ccc(Nc2nnc(Cc3ccncc3)c3ccccc23)cc1`
Result: -0.7 °C

Problem: Follow-up entry: COc1ccc2c(c[n+](C)c3c4cc5c(cc4ccc23)OCO5)c1OC [CHELERYTHRINE CHLORIDE]
Result: -1.7 °C

Problem: Now the compound C[S+]([O-])c1ccc(-c2nc(-c3ccc(F)cc3)c(-c3ccncc3)[nH]2)cc1 (configuration not stated)
Result: -0.1 °C

Problem: Try this compound next: `COc1cc(C[C@H]2C(=O)OC[C@@H]2Cc2ccc(OC)c(OC)c2)ccc1O`
Result: 0.1 °C

Problem: Moving on to `O=C(Nc1cccc(Nc2nccc(Nc3cccc(C(F)(F)F)c3)n2)c1)C1CC1`
Result: 2.6 °C

Problem: Input `CCCCc1c(-c2ccc(O)cc2)[nH]c2nccnc12`
Result: 2.2 °C

Problem: Please answer likewise for `Cn1cc(C2=C(c3cn(CCCSC(=N)N)c4ccccc34)C(=O)NC2=O)c2ccccc21`
Result: 1.9 °C

Problem: How about this compound: `CC(C)n1cnc2c(NCc3ccccc3O)nc(NCCCO)nc21`
Result: 0.2 °C

Problem: Input `C=CNC#N`
Result: 0.5 °C

----------
experiment: Inhibition of MKK3/p38
Quantity: IC50

Problem: Which IC50 value belongs to `N#C/C(=C(/N)Sc1ccc(N)cc1)c1ccccc1C(F)(F)F` ?
Result: > 10 µM

----------
Observed ΔTm, system Dual specificity mitogen-activated protein kinase kinase 6 (Homo sapiens) (UniProt P52564).
Field format: number, assumed °C, no unit text.

Problem: Which ΔTm value is on record for Cn1cnc2c(NCc3ccccc3)nc(NCCO)nc21 [OLOMOUCINE] ?
Result: 0

Problem: Another compound: COc1cc2ncnc(Nc3ccc(NC(=O)c4ccccc4)cc3)c2cc1OC [ANILINOQUINAZOLINE1]
Result: 0.2

Problem: Please do the same for `O=C1C(Cl)=C(N2C(=O)CCC2=O)C(=O)c2ccccc21` as well.
Result: -11

Problem: Next entry: `CC(C)n1cnc2/c(=N/c3cccc(Cl)c3)nc(NCCO)[nH]c21`
Result: 0.3

Problem: Now consider `CC(C)c1nn(-c2c(Cl)cccc2Cl)c2nc(Cc3ccc(OCCO)cc3)[nH]c(=O)c12` and answer again.
Result: 0.1

Problem: Another compound: `O=[N+]([O-])c1ccc(-c2nc(-c3ccc(F)cc3)c(-c3ccncc3)[nH]2)cc1`
Result: 0

Problem: Next up: `COc1ccc(Cl)cc1NC(=O)Nc1cc(C)nc2ccccc12`
Result: -0.3

Problem: Now this one: `CCOC(=O)c1cnc2oc3ccc(O)cc3c2c1-c1ccccc1`
Result: 1.9

Problem: What about this compound? O=c1c(O)c(-c2ccc(O)c(O)c2)oc2cc(O)cc(O)c12 [QUERCETIN]
Result: 3.6

Problem: Let us now turn to `COc1nccc(-c2c(-c3ccc(F)cc3)ncn2[C@H]2CC[C@H](O)CC2)n1`
Result: 0

----------
Observed ΔTm values for Dual specificity protein kinase CLK3 (Homo sapiens) (UniProt P49761) are listed in what follows.
State just the number; it will be interpreted in °C.

Problem: For the compound `O=S(=O)(c1cccc2c(Cl)cccc12)N1CCCNCC1` , what ΔTm is on record?
Result: -0.2

Problem: Another: `O=Nc1c(-c2c(O)[nH]c3ccccc23)[nH]c2ccccc12`
Result: 2.7

Problem: `COc1ccc(CNC(=O)Nc2ncc([N+](=O)[O-])s2)cc1` , same question.
Result: 0.4

Problem: Try `NCCNS(=O)(=O)c1cccc2c(Cl)cccc12` next.
Result: -0.2

Problem: Lookup `COc1cc(OC)c(/C=C2\C(=O)Nc3ccccc32)c(OC)c1`
Result: 0

Problem: Do the same for `O=C1NC(=O)C(c2cn(CCCn3ccnc3)c3ccccc23)=C1Nc1ccccc1` please
Result: 3

Problem: Queued: `COc1nccc(-c2c(-c3ccc(F)cc3)ncn2[C@H]2CC[C@H](O)CC2)n1`
Result: 0.1

Problem: What would you report for `N#C/C(=C(/N)Sc1ccc(N)cc1)c1ccccc1C(F)(F)F` ?
Result: 0

Problem: Cool, now `O=C1c2ccccc2-c2n[nH]c3cccc1c23`
Result: 2

Problem: `CC(C)(C)n1nc(-c2ccc(Cl)cc2)c2c(N)ncnc21` ?
Result: 0.7

Problem: Ok, now `NCCNc1ncc(C(N)=O)c(Nc2cccc(C(F)(F)F)c2)n1`
Result: 1

Problem: Again, but for `Ic1cccc(CSc2nnc(-c3ccncc3)o2)c1`
Result: 1.5

Problem: Same again, this time with `O=C1Nc2ccc(I)cc2/C1=C\c1cc(Br)c(O)c(Br)c1`
Result: 0.5

Problem: What do you have for `C[C@@H](N)[C@H]1CC[C@H](C(=O)Nc2ccncc2)CC1` ?
Result: 1

Problem: Now consider `Cc1cncc2cccc(S(=O)(=O)N3CCCNC[C@@H]3C)c12` .
Result: 2.6

Problem: Here is the next compound: `N#C/C(=C\c1ccc(O)c(O)c1)C(=O)NCc1ccccc1`
Result: 0.5

Problem: # repeat for `O=C(O)c1cc(NCc2cc(O)ccc2O)ccc1O`
Result: 0.2

Problem: Then this compound: `O=c1ccc2ccc(O)c(O)c2o1`
Result: 0.1

Problem: Request: `c1ccc(-c2n[nH]c3c2oc2ccccc23)cc1`
Result: 0

Problem: Quick one: `OC[C@H]1O[C@@H](n2cnc3cc(Cl)c(Cl)cc32)[C@H](O)[C@@H]1O`
Result: 1.4

Problem: How about `CCCCc1c(-c2ccc(O)cc2)[nH]c2nccnc12` ?
Result: 1.5

Problem: Another compound: `Cc1nc2sccn2c(=O)c1CCN1CCC(=C(c2ccccc2)c2ccc(F)cc2)CC1`
Result: 3

Problem: Next up: `CN1CCc2[nH]c(=S)c(C#N)c(-c3cccs3)c2C1`
Result: -0.2

Problem: Further, for `O=C(O)Cc1ccc(O)c([N+](=O)[O-])c1` ?
Result: -0.6
